- TARGET ENTITY: T1, Human CD19-his protein (human, UniProt P15391 20-291)
- T1 construct: bought protein; also called human CD19 protein; recombinant human CD19-His; not shown: His tag
- T1 sequence (looked up): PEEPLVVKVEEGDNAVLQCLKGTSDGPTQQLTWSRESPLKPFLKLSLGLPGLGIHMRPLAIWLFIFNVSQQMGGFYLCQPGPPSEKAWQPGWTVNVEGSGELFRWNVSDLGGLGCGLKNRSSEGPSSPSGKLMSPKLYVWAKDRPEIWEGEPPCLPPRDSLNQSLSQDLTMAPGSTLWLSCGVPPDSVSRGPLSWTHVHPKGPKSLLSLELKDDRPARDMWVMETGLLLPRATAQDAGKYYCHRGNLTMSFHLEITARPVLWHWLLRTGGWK
- TEST DESCRIPTION: ELISA, antibody at 0.01 nM
OBSERVED PROPERTY: OD450

Guide cases for OD450, answers given:
| BINDER | OBSERVED PROPERTY | RESULT |
| --- | --- | --- |
| F3.114.12 (antibody, human IgG1, V domains shown, human-murine chimeric antibody, human IgG1) VH: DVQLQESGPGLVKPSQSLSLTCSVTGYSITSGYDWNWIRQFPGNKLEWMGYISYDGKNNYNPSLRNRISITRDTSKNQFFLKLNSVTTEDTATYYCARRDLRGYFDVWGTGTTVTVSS VL: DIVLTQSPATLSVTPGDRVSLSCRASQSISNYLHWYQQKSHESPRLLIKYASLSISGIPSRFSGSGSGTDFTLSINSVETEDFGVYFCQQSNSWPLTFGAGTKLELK | OD450 | 0.05 |
| F3.126.15 (antibody, human IgG1, V domains shown, human-murine chimeric antibody, human IgG1) VH: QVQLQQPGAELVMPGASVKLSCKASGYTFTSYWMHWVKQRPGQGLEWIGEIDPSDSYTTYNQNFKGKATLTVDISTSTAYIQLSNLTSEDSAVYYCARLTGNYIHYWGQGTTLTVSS VL: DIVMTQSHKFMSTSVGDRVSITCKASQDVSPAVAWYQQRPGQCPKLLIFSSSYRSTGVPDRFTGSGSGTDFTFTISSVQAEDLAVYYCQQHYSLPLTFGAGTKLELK | OD450 | 0.05 |
| F3.121.4 (antibody, human IgG1, V domains shown, human-murine chimeric antibody, human IgG1; also called chimeric antibody F3.121.4) VH: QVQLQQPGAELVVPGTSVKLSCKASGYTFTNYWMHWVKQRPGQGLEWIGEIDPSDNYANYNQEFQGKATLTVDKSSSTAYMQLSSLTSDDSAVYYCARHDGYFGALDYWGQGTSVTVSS VL: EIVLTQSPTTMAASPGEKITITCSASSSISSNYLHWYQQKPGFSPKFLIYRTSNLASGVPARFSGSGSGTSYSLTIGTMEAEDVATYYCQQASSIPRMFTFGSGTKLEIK | OD450 | 0.11 |
| F4.107.12 (antibody, human IgG1, V domains shown, human-murine chimeric antibody, human IgG1) VH: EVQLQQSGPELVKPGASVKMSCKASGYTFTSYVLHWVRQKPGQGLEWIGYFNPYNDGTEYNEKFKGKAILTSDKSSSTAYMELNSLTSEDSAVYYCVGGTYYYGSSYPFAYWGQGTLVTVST VL: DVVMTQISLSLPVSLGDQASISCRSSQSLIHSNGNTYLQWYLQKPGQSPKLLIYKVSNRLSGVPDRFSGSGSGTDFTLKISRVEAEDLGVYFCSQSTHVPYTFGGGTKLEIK | OD450 | 0.27 |

Next up:
Tell me the measured OD450 of F4.21.2 (antibody, human IgG1, V domains shown, human-murine chimeric antibody, human IgG1) VH: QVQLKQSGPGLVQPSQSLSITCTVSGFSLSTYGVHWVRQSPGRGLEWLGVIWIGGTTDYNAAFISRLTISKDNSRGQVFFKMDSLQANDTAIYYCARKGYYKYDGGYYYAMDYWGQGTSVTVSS VL: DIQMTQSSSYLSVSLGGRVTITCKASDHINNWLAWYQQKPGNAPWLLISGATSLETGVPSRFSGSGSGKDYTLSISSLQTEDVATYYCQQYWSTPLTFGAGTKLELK , please. 0.29
